# TARGET_OR_TEST_SYSTEM: Serine/threonine-protein kinase B-raf (Homo sapiens);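 further: mean percent inhibition of BRAF kinase activity, from the GSK PKIS kinase inhibitor screening set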
# DETAILS: at 0.1 µM
// reported inhibition per item
Express your answer in %, writing the number without its unit.

Solved entries (count: 2):
[
  {
    "STRUCTURE_SMILES_STRING": "CN(c1ccc(NC(=O)Nc2ccc(OC(F)(F)F)cc2)cc1)c1ccnc(Nc2cccc(S(N)(=O)=O)c2)n1",
    "TARGET_OR_TEST_SYSTEM": "Serine/threonine-protein kinase B-raf (Homo sapiens)",
    "inhibition [%]": 5.02
  },
  {
    "STRUCTURE_SMILES_STRING": "Cc1ccc2c(c1)/C(=N/Nc1ccc(S(N)(=O)=O)cc1)C(=O)N2",
    "TARGET_OR_TEST_SYSTEM": "Serine/threonine-protein kinase B-raf (Homo sapiens)",
    "inhibition [%]": 0.51
  }
]

Turning now to a further record.
Problem: Given the entry O=C(Nc1ccc(Oc2ccc3[nH]c(NC(=O)c4ccco4)nc3c2)cc1)Nc1cc(C(F)(F)F)ccc1F , report its measured inhibition.
Result: 4.64

----------
Parameter: inhibition. Scope: all listed entries.
# TARGET_OR_TEST_SYSTEM: Tyrosine-protein kinase Lyn (Homo sapiens) (UniProt P07948);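 further: mean percent inhibition of the LYN A splice variant of the kinase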
# Sequence (P07948 2-512 limits assumed): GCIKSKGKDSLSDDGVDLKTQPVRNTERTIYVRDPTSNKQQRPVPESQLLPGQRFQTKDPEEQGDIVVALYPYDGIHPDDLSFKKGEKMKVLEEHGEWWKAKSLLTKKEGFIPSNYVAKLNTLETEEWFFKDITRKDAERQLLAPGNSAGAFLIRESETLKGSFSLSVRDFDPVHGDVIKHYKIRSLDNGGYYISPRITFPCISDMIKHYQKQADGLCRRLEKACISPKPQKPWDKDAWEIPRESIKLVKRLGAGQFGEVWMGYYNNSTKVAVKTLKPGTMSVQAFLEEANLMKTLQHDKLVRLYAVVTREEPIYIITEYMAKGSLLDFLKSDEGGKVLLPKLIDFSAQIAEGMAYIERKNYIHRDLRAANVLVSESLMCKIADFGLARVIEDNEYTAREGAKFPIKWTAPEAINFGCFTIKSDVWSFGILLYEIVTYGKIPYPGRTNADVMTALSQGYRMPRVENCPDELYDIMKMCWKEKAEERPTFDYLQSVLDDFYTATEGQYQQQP
# DETAILS: at 1 µM
# Description: GSK_PKIS: LYN A (splice variant) mean inhibition at 1 uM [Nanosyn]

[
  {
    "COMPOUND": "Oc1cccc(-c2nc(-c3ccccc3)[nH]c2-c2ccncc2)c1",
    "TARGET_OR_TEST_SYSTEM": "Tyrosine-protein kinase Lyn (Homo sapiens) (UniProt P07948)",
    "inhibition": "31.3%"
  }
]

Problem: Entry under review: CCn1c(-c2nonc2N)nc2c(C#CC(C)(C)O)nc(OCCNC)cc21 . Reported inhibition?
Result: 5.53%

Problem: Query: inhibition; subject: NC(=O)c1cccc(Nc2nccc(Nc3cccc(F)c3)n2)c1
Result: 36.1%

Problem: Data request, read-out inhibition, for N#Cc1cccc(Nc2nccc(-c3cnn4ncccc34)n2)c1
Result: 31.5%

Problem: What measured inhibition goes with CN1CCN(C(=O)c2ccc(NC(=O)Nc3ccc(N(C)c4ccnc(Nc5ccc(CS(C)(=O)=O)cc5)n4)cc3)cc2)CC1 ?
Result: 19.7%

Problem: Endpoint output: inhibition of COc1cc(Nc2nccc(-c3cnn4ncccc34)n2)cc(OC)c1 . Value?
Result: 29.3%

Problem: Reported inhibition for O=C1Nc2ccc(-c3cccnc3)cc2C1=Cc1cc(Br)c(O)c(Br)c1 : what is it?
Result: 11.1%

Problem: Need inhibition, item Nc1ccc(C#Cc2cncnc2Nc2ccc(OCc3cccc(F)c3)c(Cl)c2)cc1
Result: 4.42%

----------
# TARGET_OR_TEST_SYSTEM: Serine/threonine-protein kinase Nek9 (Homo sapiens) (UniProt Q8TD19);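 further: reported value is the mean percent inhibition of NEK9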
# Sequence (whole entry): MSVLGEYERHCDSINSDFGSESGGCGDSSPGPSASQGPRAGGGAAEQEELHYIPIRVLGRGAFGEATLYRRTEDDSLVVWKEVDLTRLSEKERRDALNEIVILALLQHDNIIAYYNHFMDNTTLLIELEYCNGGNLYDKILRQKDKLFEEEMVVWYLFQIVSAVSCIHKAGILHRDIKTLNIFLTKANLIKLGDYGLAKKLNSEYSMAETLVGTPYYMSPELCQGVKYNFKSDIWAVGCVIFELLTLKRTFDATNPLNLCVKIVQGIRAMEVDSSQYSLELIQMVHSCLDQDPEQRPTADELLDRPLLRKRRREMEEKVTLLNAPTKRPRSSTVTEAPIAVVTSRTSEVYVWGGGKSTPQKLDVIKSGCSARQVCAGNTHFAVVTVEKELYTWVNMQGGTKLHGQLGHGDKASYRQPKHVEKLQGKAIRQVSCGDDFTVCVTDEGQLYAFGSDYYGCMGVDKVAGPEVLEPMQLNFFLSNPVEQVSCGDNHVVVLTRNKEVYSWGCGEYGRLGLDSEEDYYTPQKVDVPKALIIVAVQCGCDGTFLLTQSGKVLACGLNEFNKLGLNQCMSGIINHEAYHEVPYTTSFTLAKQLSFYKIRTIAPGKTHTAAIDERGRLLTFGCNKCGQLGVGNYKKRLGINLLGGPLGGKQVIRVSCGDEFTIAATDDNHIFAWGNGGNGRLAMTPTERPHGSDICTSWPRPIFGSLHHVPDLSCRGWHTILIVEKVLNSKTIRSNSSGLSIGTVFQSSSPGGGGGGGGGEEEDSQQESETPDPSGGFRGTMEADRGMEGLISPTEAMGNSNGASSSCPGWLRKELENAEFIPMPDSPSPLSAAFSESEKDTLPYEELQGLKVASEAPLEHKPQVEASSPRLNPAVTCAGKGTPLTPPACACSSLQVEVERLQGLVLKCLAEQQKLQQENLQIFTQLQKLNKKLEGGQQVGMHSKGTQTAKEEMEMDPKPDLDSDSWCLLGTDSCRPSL
# DETAILS: at 0.1 µM
Rule: inhibition under 7% gives No, otherwise Yes.

[
  {
    "STRUCTURE_SMILES_STRING": "C[C@@H](Oc1cc(-n2cnc3ccc(OC[C@@H](O)CO)cc32)sc1C(N)=O)c1ccccc1Cl",
    "GROUP_LABEL": "Yes"
  },
  {
    "STRUCTURE_SMILES_STRING": "Cc1nc(-c2ccccc2)n2nc(NCCCN3CCOCC3)ncc12",
    "GROUP_LABEL": "Yes"
  },
  {
    "STRUCTURE_SMILES_STRING": "NS(=O)(=O)c1ccc(Nc2cc(-c3cccc(O)c3)n[nH]2)cc1",
    "GROUP_LABEL": "No"
  }
]

Below: the item to evaluate.
Problem: Tell me whether inhibition is at least 7% here: Cc1ccc2c(-c3ccnc(Nc4ccc5c(c4)OCCO5)n3)c(-c3ccc(C(F)(F)F)cc3)nn2n1
Result: No
